biological target: human mGlu5a receptor (Homo sapiens (Human)); test: Intracellular Ca2+ mobilization assay (mGlu5 PAM); format: cell-based; conditions: maximal response in % of the maximal stimulatory effect obtained with saturating concentrations of L-glutamate; read-out: Eff. (%)
Categories are defined by ranges of Emax, namely b0 = under 60%, b1 = from 60% up to 90%, b2 = 90% and over

Ask | Class for O=C1O[C@H]2CCC[C@H]2N1c1ccc(C#Cc2cncc(F)c2)cn1 (racemic) ?
Reply | b1

Ask | Please report the category associated with CN1C(=O)N(c2ccc(C#Cc3ccccc3)cn2)CC1C1CCCC1 (racemic) , nothing else.
Reply | b2

Ask | Kindly identify the class of `CC1(C)CN(c2ccc(C#Cc3ccc(F)c(F)c3)cn2)C(=O)O1` .
Reply | b0

Further cases:
Ask | Sort `CC1(C)CCN(c2cnc(C#Cc3cccc(F)c3)cn2)C(=O)N1` into one of the categories.
Reply | b0

Ask | # classify by Emax band: `CC1(C)CN(c2ccc(C#Cc3cncnc3)cn2)C(=O)O1`
Reply | b0

Ask | Lab log: `CN1C(=O)N(c2ccc(C#Cc3cncnc3)cn2)CC1(C)C` — assign Emax category
Reply | b2

Ask | State the class of the compound shown: `O=C1CC2(COC2)CN1c1ccc(C#Cc2ccccc2)cn1`
Reply | b1

Ask | Lab note: sort `CN1C(=O)N(c2ncc(C#Cc3cccc(F)c3)cn2)CCC1(C)C` into the matching Emax band.
Reply | b1

----------
target: human mGlu5a receptor (Homo sapiens (Human)); assay: Intracellular Ca2+ mobilization assay (mGlu5 PAM); assay type: cell-based; settings: HEK-293 cells stably transfected with human mGlu5a; L-glutamate added at EC20 after pre-incubation with test compound; read-out: EC50 (nM) mGlu5PAM
Record form. Attribute: EC50. Fill in for each entry.
Give bare numbers, in nM.

Past entries and their recorded results:
The value of EC50 recorded for O=C1OC2(CC2)CN1c1ccc(C#Cc2ccccc2)cn1 [Example 9] when tested on human mGlu5a receptor (Homo sapiens (Human)) reads 15

Entry CC1(C)CCN(c2ccc(C#Cc3cc(F)ccc3F)cn2)C(=O)C1 [Example 92] , tested on human mGlu5a receptor (Homo sapiens (Human)), has a reported EC50 of 32

The reported human mGlu5a receptor (Homo sapiens (Human)) EC50 of CN1C(=O)N(c2ncc(C#Cc3ccccc3)cn2)CC1(C)C [Example 122] is 11

The reported EC50 value, human mGlu5a receptor (Homo sapiens (Human)), for CC1(C)CCCN(c2ccc(C#Cc3ccccc3)cn2)C(=O)O1 [Example 93] reads 36

Continuing:
// EC50 (human mGlu5a receptor (Homo sapiens (Human))) for CC1(C)CN(c2ccc(C#Cc3ccccc3)cn2)C1=O [Example 97] = 36

----------
Provide the reported log10 EC50 of each item.
target: human mGlu5a receptor (Homo sapiens (Human), UniProt P41594); experiment: Intracellular Ca2+ mobilization assay (mGlu5 PAM); type: cell-based; conditions: HEK-293 cells stably transfected with human mGlu5a; L-glutamate added at EC20 after pre-incubation with test compound; read-out: EC50 (nM) mGlu5PAM
Sequence (P41594 other isoform, or with tags, fused parts or gaps): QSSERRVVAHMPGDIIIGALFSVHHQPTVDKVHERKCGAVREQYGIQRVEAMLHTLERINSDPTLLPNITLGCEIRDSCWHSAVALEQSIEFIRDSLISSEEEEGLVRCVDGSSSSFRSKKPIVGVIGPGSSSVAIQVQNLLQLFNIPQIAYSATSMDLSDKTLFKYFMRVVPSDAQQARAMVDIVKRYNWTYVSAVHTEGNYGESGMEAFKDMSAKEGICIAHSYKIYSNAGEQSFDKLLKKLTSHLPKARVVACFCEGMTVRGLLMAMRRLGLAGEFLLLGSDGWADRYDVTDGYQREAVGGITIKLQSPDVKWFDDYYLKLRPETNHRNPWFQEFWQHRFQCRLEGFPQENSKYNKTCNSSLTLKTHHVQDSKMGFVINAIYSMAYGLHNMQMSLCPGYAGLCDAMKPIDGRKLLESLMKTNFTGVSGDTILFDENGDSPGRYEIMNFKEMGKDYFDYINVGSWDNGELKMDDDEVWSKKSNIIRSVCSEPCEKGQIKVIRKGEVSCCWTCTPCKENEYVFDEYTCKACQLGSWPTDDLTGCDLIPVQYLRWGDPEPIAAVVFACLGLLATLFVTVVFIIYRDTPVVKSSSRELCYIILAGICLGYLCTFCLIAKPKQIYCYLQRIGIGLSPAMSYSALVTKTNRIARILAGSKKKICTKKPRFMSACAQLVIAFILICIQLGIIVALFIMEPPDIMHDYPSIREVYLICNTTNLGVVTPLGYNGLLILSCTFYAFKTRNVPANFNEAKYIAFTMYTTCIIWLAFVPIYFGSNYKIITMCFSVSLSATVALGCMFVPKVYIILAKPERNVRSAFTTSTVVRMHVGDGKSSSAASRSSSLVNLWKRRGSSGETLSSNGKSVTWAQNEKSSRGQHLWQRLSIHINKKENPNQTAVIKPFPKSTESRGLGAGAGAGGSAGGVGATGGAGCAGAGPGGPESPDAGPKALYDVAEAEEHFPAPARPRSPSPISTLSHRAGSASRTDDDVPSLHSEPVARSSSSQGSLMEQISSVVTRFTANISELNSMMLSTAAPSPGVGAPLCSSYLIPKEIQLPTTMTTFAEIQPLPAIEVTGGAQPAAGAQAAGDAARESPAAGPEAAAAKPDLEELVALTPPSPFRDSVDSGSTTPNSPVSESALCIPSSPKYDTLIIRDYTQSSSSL
Base-10 log of EC50, unit nM.

Check out these entries, answers already filled in.
GET /value?item= `CC(C)N1C(=O)N(c2ncc(C#Cc3cccc(F)c3)cn2)CC1(C)C` &field=log10 EC50 returns 1.45

Data point: O=C1N(c2ccc(C#Cc3cccnc3)cn2)CC2CCCCN12 (racemic) ; log10 EC50 = 1.87

Data point: COCC1CN(c2ccc(C#Cc3ccccc3)cn2)C(=O)O1 (racemic) ; log10 EC50 = 1.67

Record summary for `CC1(C)CC(=O)N(c2ccc(C#Cc3ccccc3)cn2)C1` : reported log10 EC50 = 1.57

The molecule listed as `CC1(C)CN(c2ccc(C#Cc3ccccc3)cn2)C(=O)N1` shows log10 EC50 equal to 2.11

Given item `CC1(C)CN(c2ccc(C#Cc3ccc(F)cc3)cn2)C(=O)O1` , the value recorded as its log10 EC50 is 1.28

The recorded log10 EC50 for `O=C1CC2(CCCC2)CN1c1ncc(C#Cc2ccccc2)cn1` is 1.64

Form: molecule = COC1C(=O)N(c2ccc(C#Cc3ccc(F)cc3)cn2)CC1(C)C (racemic) ; log10 EC50 = 1.88

Per the record, `CC1(C)CCN(c2cnc(C#Cc3ccccc3)cn2)C(=O)C1` has log10 EC50 of 1.84

The reported value for `CN1C(=O)N(c2cnc(C#Cc3cccc(F)c3)cn2)CC1(C)C` in terms of log10 EC50 is 1.66

Dear reader, for each entry below, please note its log10 EC50.
1. CN1C(=O)N(c2ccc(C#Cc3ccnnc3)cn2)CC1(C)C
2. CC1(C)CC(=O)N(c2ncc(C#Cc3cccc(Cl)c3)cn2)C1
3. CCN1C(=O)N(c2ncc(C#Cc3ccc(F)cc3)cn2)CC1(C)C
4. CC1(C)CCN(c2cnc(C#Cc3ccccc3)cn2)C(=O)N1

Reply |
1: 1.53; 2: 1.04; 3: 1.67; 4: 2.52

----------
molecular target: UniProtKB P41594; assay: Intracellular Ca2+ mobilization assay (mGlu5 PAM); format: cell-based; settings: HEK-293 cells stably transfected with human mGlu5a; L-glutamate added at EC20 after pre-incubation with test compound; read-out: EC50 (nM) mGlu5PAM
// classify: if (EC50 < 30 nM) satisfied else not satisfied

Example cases with answers are listed next.
Ask | Here's an entry: COC1C(=O)N(c2ncc(C#Cc3ccccc3)cn2)CC1(C)C (racemic) . Is its EC50 below 30 nM?
Reply | satisfied

Ask | EC50 under 30 nM? Item: `CC1(C)CC(=O)N(c2ccc(C#Cc3cccc(F)c3)cn2)C1`
Reply | satisfied

Ask | Lab note: EC50 threshold 30 nM. Does this compound come in strictly under it? COC1CN(c2ccc(C#Cc3cccc(F)c3)cn2)C(=O)OC1(C)C (racemic)
Reply | satisfied

Ask | Confirm or reject: EC50 of `CC1(C)CC(=O)N(c2ccc(C#Cc3cncc(Cl)c3)cn2)C1` lies strictly below 30 nM
Reply | not satisfied

Ask | Regarding CO[C@@H]1C(=O)N(c2ccc(C#Cc3ccccc3)cn2)CC1(C)C (single isomer, unassigned) , kindly confirm whether its EC50 is beneath 30 nM.
Reply | not satisfied

New cases:
Ask | Identify whether the compound `CC1(C)CN(c2ccc(C#Cc3cc(F)ccc3F)cn2)C(=O)O1` records EC50 below 30 nM.
Reply | satisfied

Ask | Does the reported EC50 of `CC1(C)CN(c2ccc(C#Cc3ccc(F)c(F)c3)cn2)C(=O)O1` stay below 30 nM?
Reply | not satisfied

Ask | Strictly below 30 nM: is that where EC50 of `CC1(C)CC(=O)N(c2cnc(C#Cc3cccc(F)c3)cn2)C1` sits?
Reply | satisfied

Ask | Would you kindly verify if EC50 of `CC1(C)CN(c2ccc(C#Cc3ccc(F)nc3)cn2)C(=O)O1` is strictly less than 30 nM?
Reply | not satisfied

----------
target: UniProtKB P41594; assay: Intracellular Ca2+ mobilization assay (mGlu5 PAM); format: cell-based; conditions: maximal response in % of the maximal stimulatory effect obtained with saturating concentrations of L-glutamate; read-out: Eff. (%)
OBSERVED_PROPERTY: Emax
Provide a numeric answer, followed by its unit.

// below: answered compounds
Emax value, target or system UniProtKB P41594, for CC(C)N1C(=O)N(c2ccc(C#Cc3ccccc3)cn2)C2CCCCC21 (stereo not shown) : 77%

`CC1(C)CCC(=O)N(c2ncc(C#Cc3ccccc3)cn2)C1` on UniProtKB P41594 gives Emax = 101%

Lab note: compound CO[C@@H]1C(=O)N(c2ccc(C#Cc3ccccc3)cn2)CC1(C)C (single isomer, unassigned) tested on UniProtKB P41594; recorded Emax was 70%

Now let's try a different one.
Value (Emax, UniProtKB P41594) for record `CC1(C)CC(=O)N(c2ncc(C#Cc3cc(F)ccc3F)cn2)C1` = 70%

----------
molecular target: human mGlu5a receptor (Homo sapiens (Human), UniProt P41594); test: Intracellular Ca2+ mobilization assay (mGlu5 PAM); type: cell-based; conditions: maximal response in % of the maximal stimulatory effect obtained with saturating concentrations of L-glutamate; read-out: Eff. (%)
OBSERVED_PROPERTY: Emax (%)
Numbers only, in %.

Sample records with Emax:
Measured Emax (human mGlu5a receptor (Homo sapiens (Human), UniProt P41594)), entry CN1C(=O)N(c2ccc(C#Cc3ccccc3)cn2)CC1(C)C [Example 16] : 103

Known value: human mGlu5a receptor (Homo sapiens (Human), UniProt P41594) Emax of the compound CC1(C)CN(c2ncc(C#Cc3ccccc3)cc2F)C(=O)O1 [Example 1] equals 68

human mGlu5a receptor (Homo sapiens (Human), UniProt P41594) Emax of CN1C(=O)N(c2ncc(C#Cc3cccc(F)c3)cc2F)CC1(C)C [Example 111] is 107

Form: item O=C1[C@H]2CCC[C@H]2N1c1ccc(C#Cc2ccccc2)cn1 (racemic) [Example 46] ; test system human mGlu5a receptor (Homo sapiens (Human), UniProt P41594); Emax: 27

Record for CC1(C)CN(c2ccc(C#Cc3ccccc3)cn2)C(=O)O1 [Example 5] under target or system human mGlu5a receptor (Homo sapiens (Human), UniProt P41594): Emax reported as 77

// returns Emax for CN1C(=O)N(c2ncc(C#Cc3cccc(F)c3)cn2)CC1(C)C [Example 123] with human mGlu5a receptor (Homo sapiens (Human), UniProt P41594); value = 30

Give Emax for each listed item.
1. CC1(C)CC(=O)N(c2ccc(C#Cc3cncc(F)c3)cn2)C1 [Example 37]
2. Cc1cc(C#Cc2ccccc2)cnc1N1CC(C)(C)CC1=O [Example 41]
3. CO[C@@H]1C(=O)N(c2ncc(C#Cc3ccccc3)cn2)CC1(C)C (single isomer, unassigned) [Example 128]

Reply |
96
89
54
